Measured solubility at 12 h by item
- method_summary: Solubility of the compound in phosphate buffered saline at pH 7.4 after 12 hrs
- Type: physicochemical
Unit µg/mL implied. Number only.

Consider the reported solubility at 12 h for these compounds:
| chemical_smiles | units_label | solubility at 12 h |
| --- | --- | --- |
| COc1c2c3c4c(c(OC)c(=O)c5c(O)cc(OC)c(c6c(OC)cc(O)c(c1=O)c63)c54)C(/C(C)=N/CCCCS(=O)(=O)O)=C(C)C2 | µg/mL | 3900 |
| COc1c2c3c4c(c(OC)c(=O)c5c(O)cc(OC)c(c6c(OC)cc(O)c(c1=O)c63)c54)C(/C(C)=N/CCCCCS(=O)(=O)O)=C(C)C2 | µg/mL | 1700 |
| COc1c2c3c4c(c(OC)c(=O)c5c(O)cc(OC)c(c6c(OC)cc(O)c(c1=O)c63)c54)C(/C(C)=N/CCCS(=O)(=O)O)=C(C)C2 | µg/mL | 6600 |
| COc1c2c3c4c(c(NCCS(=O)(=O)O)c(=O)c5c(O)cc(OC)c(c6c(OC)cc(O)c(c1=O)c63)c54)CC(C)=C2C(C)=O | µg/mL | 9200 |
| COC1=C(C(C)=O)C2=C(C)Cc3c(OC)c(=O)c(O)c4cc(OC)c5c(OC)cc(O)c6c(c2c3c4c56)C1=O | µg/mL | 4.6 |

Shift focus to the following entry.
Q: Look up solubility at 12 h: "COc1c2c3c4c(c(OC)c(=O)c5c(O)cc(OC)c(c6c(OC)cc(O)c(c1=O)c63)c54)C(/C(C)=N/CCCCCCS(=O)(=O)O)=C(C)C2"
A: 200
